- Tested on: Ramos cell surface target (unidentified; human B-cell leukemia cells)
- Experiment: competition
- Measurement parameters: competition with FITC-labeled monomer on target cells, flow cytometry
Outcome measure: IC50 (nM)
Numbers only, in nM.

Worked cases, IC50 given:
Query: Which measured IC50 belongs to TAGGCAGTGGTTTGACGTCCGCATGTTGGGAATAGCCACGCCT / TAGGCAGTGGTTTGACGTCCGCATGTTGGGAATAGCCACGCCT [flexible dimer of SEQ 3 aptamer] , tested on Ramos cell surface target (unidentified; human B-cell leukemia cells)?
Response: 33

Query: # repeat for TAGGCAGTGGTTTGACGTCCGCATGTTGGGAATAGCCACGCCT / TAGGCAGTGGTTTGACGTCCGCATGTTGGGAATAGCCACGCCT / TAGGCAGTGGTTTGACGTCCGCATGTTGGGAATAGCCACGCCT [rigid trimer of SEQ 3 aptamer]
Response: 20.8

Query: # repeat for TAGGCAGTGGTTTGACGTCCGCATGTTGGGAATAGCCACGCCT / TAGGCAGTGGTTTGACGTCCGCATGTTGGGAATAGCCACGCCT / TAGGCAGTGGTTTGACGTCCGCATGTTGGGAATAGCCACGCCT / TAGGCAGTGGTTTGACGTCCGCATGTTGGGAATAGCCACGCCT [rigid tetramer of SEQ 3 aptamer]
Response: 11.6

Query: # repeat for TAGGCAGTGGTTTGACGTCCGCATGTTGGGAATAGCCACGCCT / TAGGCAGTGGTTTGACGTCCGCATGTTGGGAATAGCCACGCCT [rigid dimer of SEQ 3 aptamer]
Response: 22.5

***
Query: Which measured IC50 belongs to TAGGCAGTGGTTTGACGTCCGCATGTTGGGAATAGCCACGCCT / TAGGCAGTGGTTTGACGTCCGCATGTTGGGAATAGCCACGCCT / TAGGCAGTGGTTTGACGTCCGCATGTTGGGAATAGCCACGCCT [flexible trimer of SEQ 3 aptamer] , tested on Ramos cell surface target (unidentified; human B-cell leukemia cells)?
Response: 27.8

* * *

- System: Ramos cell surface target (unidentified; human B-cell leukemia cells)
- Experiment: competition
- Measurement parameters: unlabeled monomer vs FITC-labeled monomer on target cells, flow cytometry
Outcome measure: IC50 (nM)
One number for each entry, in nM.

Query: Fill blank: measured IC50 of the sequence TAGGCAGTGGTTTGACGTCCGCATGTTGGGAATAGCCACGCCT [Ramos-binding ssDNA aptamer monomer] is ____.
Response: 400
